B1: C22orf31 (parent)
chain: YSLELGKAIKQKLWEALCSQGAIS

Variants of: B1
methodSummary: protein stability index of a GFP-peptide fusion (GPS, HEK-293T) (PSI 1-6); higher = more stable;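 further: lentivirally expressed fusions sorted by FACS into six bins by GFP to DsRed ratio, PSI derived from sequencing read proportions per bin multiplied by bin number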
testContext: c terminus: a fixed tail appended
In this section we review reported protein stability index values for a set of variants.
Just the number.

YSLELEKAIKQKLWEALCSQGAIS [G6E]
2.03

INPUT: // fetch protein stability index given entry YSLELGKAIKQKRWEALCSQGAIS [L13R]
OUTPUT: 2.05

INPUT: Note down protein stability index recorded for YSLELGKAIKQKLWEAGCSQGAIS [L17G]
OUTPUT: 2.05

INPUT: Consider the variant YSLELGKAIKQKLWEALCSQGAIH [S24H] . State its measured protein stability index.
OUTPUT: 2.01
